Entry source: paper PMC10861852

- measurement.target: AcaGluD (Acanthaster planci)
- Sequence (A0A8B7XXR5 24-958): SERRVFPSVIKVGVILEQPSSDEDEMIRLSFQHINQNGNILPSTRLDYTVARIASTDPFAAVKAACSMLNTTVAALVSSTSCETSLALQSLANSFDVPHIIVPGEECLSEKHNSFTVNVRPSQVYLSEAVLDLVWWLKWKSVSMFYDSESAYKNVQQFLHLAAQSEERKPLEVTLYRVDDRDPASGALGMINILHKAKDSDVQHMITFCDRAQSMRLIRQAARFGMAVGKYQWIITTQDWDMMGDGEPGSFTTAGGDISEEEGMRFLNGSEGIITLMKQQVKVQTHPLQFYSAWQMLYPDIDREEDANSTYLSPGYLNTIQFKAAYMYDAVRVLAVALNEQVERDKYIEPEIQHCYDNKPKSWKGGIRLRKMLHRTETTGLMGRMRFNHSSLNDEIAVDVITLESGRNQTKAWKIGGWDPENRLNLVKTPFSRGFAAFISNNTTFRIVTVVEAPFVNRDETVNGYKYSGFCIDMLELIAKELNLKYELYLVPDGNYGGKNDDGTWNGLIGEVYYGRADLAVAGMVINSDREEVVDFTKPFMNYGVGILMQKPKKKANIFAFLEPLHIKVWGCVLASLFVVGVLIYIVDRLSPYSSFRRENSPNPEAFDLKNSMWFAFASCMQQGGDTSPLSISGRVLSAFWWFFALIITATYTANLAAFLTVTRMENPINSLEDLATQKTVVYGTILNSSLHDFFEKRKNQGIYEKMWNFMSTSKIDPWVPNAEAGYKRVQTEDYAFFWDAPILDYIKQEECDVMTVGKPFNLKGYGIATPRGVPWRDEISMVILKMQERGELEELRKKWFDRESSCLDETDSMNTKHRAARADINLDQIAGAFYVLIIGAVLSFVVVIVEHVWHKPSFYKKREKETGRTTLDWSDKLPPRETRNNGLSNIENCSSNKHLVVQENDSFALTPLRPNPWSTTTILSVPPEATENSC
- protocol.notes: Two-electrode voltage clamp, ligand-gated currents in oocytes
- Type: cell-based
- experimental.conditions: ligand-gated current, 1.8 mM Ca2+ (regular bath solution), n = 5
measurement.name: EC50 (µM)

smiles.code: NCCCC(=O)O
measurement.target: AcaGluD (Acanthaster planci)
measurement.name: EC50
units: µM
recorded.measurement: 13

====

- measurement.target: AcaGluD (Acanthaster planci)
- protocol.notes: Two-electrode voltage clamp, ligand-gated currents in oocytes
- Assay type: cell-based
- experimental.conditions: 0 Ca2+, n = 5

compound: NCCCC(=O)O [GABA, γ-aminobutyric acid]
EC50 (µM): 5

====

- measurement.target: AcaGluD (Acanthaster planci, UniProt A0A8B7XXR5)
- protocol.notes: Two-electrode voltage clamp, ligand-gated currents in oocytes
- Assay type: cell-based
- experimental.conditions: ligand-gated current, 1.8 mM Ca2+ (regular bath solution)
pEC50: −log10 of the molar value.
measurement.name: pEC50

smiles.code: NCC(=O)O
measurement.target: AcaGluD (Acanthaster planci, UniProt A0A8B7XXR5)
recorded.measurement: 2.70

====

- measurement.target: AcaGluD (Acanthaster planci, UniProt A0A8B7XXR5)
- protocol.notes: Two-electrode voltage clamp, ligand-gated currents in oocytes
- Format: cell-based
- experimental.conditions: 0 Ca2+, n = 4
pEC50: −log10 of the molar value.
measurement.name: pEC50

compound: NCC(=O)O [glycine]
measurement.target: AcaGluD (Acanthaster planci, UniProt A0A8B7XXR5)
recorded.measurement: 2.70

====

- measurement.target: AcaGluD (Acanthaster planci, UniProt A0A8B7XXR5)
- protocol.notes: Two-electrode voltage clamp, ligand-gated currents in oocytes
- Format: cell-based
- experimental.conditions: 100 μM, coapplied with ~EC30 GABA concentration
Label rule, in plain words: inhibition of GABA-gated current of 10% and up is 1 (yes), under 10% is 0 (no).

compound: NS(=O)(=O)c1cccc2c1c([N+](=O)[O-])cc1nc(O)c(O)nc12 [NBQX]
measurement.target: AcaGluD (Acanthaster planci, UniProt A0A8B7XXR5)
assigned.label: 1 (yes)
//
compound: O=[N+]([O-])c1cc2nc(O)c(O)nc2cc1[N+](=O)[O-] [DNQX]
measurement.target: AcaGluD (Acanthaster planci, UniProt A0A8B7XXR5)
assigned.label: 1 (yes)
//
compound: N#Cc1cc2[nH]c(=O)c(=O)[nH]c2cc1[N+](=O)[O-] [CNQX]
measurement.target: AcaGluD (Acanthaster planci, UniProt A0A8B7XXR5)
assigned.label: 1 (yes)
//
compound: O=C(O)c1cc(=O)c2c(Cl)cc(Cl)cc2[nH]1 [5,7-dichlorokynurenic acid]
measurement.target: AcaGluD (Acanthaster planci, UniProt A0A8B7XXR5)
assigned.label: 1 (yes)
//
compound: C[C@@H](NCc1cc(Br)cc2[nH]c(=O)c(=O)[nH]c12)P(=O)(O)O [CGP-78608]
measurement.target: AcaGluD (Acanthaster planci, UniProt A0A8B7XXR5)
assigned.label: 0 (no)
